Recorded values, source PubChem BioAssay (NCI).

System: SF-295 CNS
Assay: NCI tumour cell line growth inhibition, 48 h
TGI for assorted molecules

Please review the entries below; each comes with its answer.
[
  {
    "MOLECULE": "CCCCCCCCOCC(O)COC(=O)CCCCCCC (configuration not stated)",
    "TGI": "> 100 µM"
  },
  {
    "MOLECULE": "C[n+]1c(-c2ccc(/C=N/NC(=O)C(=O)N/N=C/c3ccc(-c4cn5ccsc5[n+]4C)cc3)cc2)cn2ccsc21",
    "TGI": "> 100 µM"
  },
  {
    "MOLECULE": "CC(=O)Nc1cc2c3c(c1)CCCN3CCC2",
    "TGI": "> 100 µM"
  },
  {
    "MOLECULE": "CN(C)CCNC(=O)C(C)(C)Oc1ccc(C(=O)c2ccc(Cl)cc2)cc1Cl",
    "TGI": "22.6 µM"
  },
  {
    "MOLECULE": "CC(=O)O[C@H]1/C(=C/c2ccncc2)C[C@H]2[C@@H]3CC=C4C[C@@H](N5CCCC5)CC[C@]4(C)[C@H]3CC[C@]12C",
    "TGI": "29.4 µM"
  }
]

Q: Would you mind telling me what TGI value was observed for CC(C)(C)C(=O)OCOP(=O)(OCOC(=O)C(C)(C)C)C1CC(O)N(O)C1=O (configuration not stated) ?
Result: > 100 µM

Q: One more molecule: `Cc1ccc(N=Nc2ccc(O)c(CN(C)C)c2)cc1`
Result: 33.7 µM

Q: One more molecule: `CN(NC(=O)c1cccs1)C1=NCCCCN1`
Result: > 100 µM

Q: One more molecule: CC1COc2c(N3CCN(C)CC3)c(F)cc3c(=O)c(C(=O)O)cn1c23 (configuration not stated)
Result: > 100 µM

Q: One more molecule: `NCCN1C(=O)CN=C(c2ccc(Cl)cc2)c2cc(Cl)ccc21`
Result: > 100 µM

Q: One more molecule: `c1ccc([P+](Cc2ccccc2C[P+](c2ccccc2)(c2ccccc2)c2ccccc2)(c2ccccc2)c2ccccc2)cc1`
Result: > 100 µM

Q: One more molecule: `Cc1nnc2sc(NN)nn12`
Result: > 100 µM

----------
Tested on: A498 renal
Experiment: NCI tumour cell line growth inhibition, 48 h
Classification field: 1 = TGI at or over 40 µM; 0 = TGI under 40 µM.

[
  {
    "COMPOUND": "Cc1cccc2c1N(C(=O)/C=C\\C(=O)O)C(c1c(C)[nH]c3ccccc13)C2 (stereo unspecified)",
    "QUALITATIVE_LABEL": 1
  },
  {
    "COMPOUND": "CC(C)(C)Nc1noc(=O)n1C(C)(C)C",
    "QUALITATIVE_LABEL": 1
  },
  {
    "COMPOUND": "CNCc1cc(OC)ccc1-c1ccc(OC)c(OC)c1OC",
    "QUALITATIVE_LABEL": 1
  },
  {
    "COMPOUND": "COc1cc(OC)c(/C=C\\c2cc(/C=C/c3c(OC)cc(OC)cc3OC)c3ccccc3[n+]2C)c(OC)c1",
    "QUALITATIVE_LABEL": 0
  }
]

Q: For this compound, is measured TGI 40 µM or higher? CC(/C(=N\Nc1ccccc1)c1ccc(O)cc1)C1C(=O)Oc2ccccc21 (stereo unspecified)
Result: 1

Q: One more compound: NC1CCC(Nc2nc(NCc3ccc(-c4cccs4)nc3)c3ncn(C4CCCC4)c3n2)CC1 (stereo unspecified)
Result: 0

Q: One more compound: `CCOC(=O)c1c(C)n2c(=O)cc(C)c3c(O)c(O)cc1c32`
Result: 1

----------
Test system: OVCAR-5 ovarian
Assay: NCI tumour cell line growth inhibition, 48 h
TGI for assorted compounds

Please review the entries below; each comes with its answer.
[
  {
    "COMPOUND": "COc1ccc(C(=O)c2cc(OC)c(OC)c(OC)c2)cc1/C=C/C(=O)c1ccc(OC)c(OC)c1",
    "SYSTEM_UNDER_TEST": "OVCAR-5 ovarian",
    "TGI": "> 100 µM"
  },
  {
    "COMPOUND": "O=c1oc2ccccc2c(O)c1/C=N/C(=S)NCCc1ccccc1",
    "SYSTEM_UNDER_TEST": "OVCAR-5 ovarian",
    "TGI": "> 100 µM"
  },
  {
    "COMPOUND": "CC(=O)NC(c1nc2cc(C)c(C)cc2[nH]1)c1nc2cc(C)c(C)cc2[nH]1",
    "SYSTEM_UNDER_TEST": "OVCAR-5 ovarian",
    "TGI": "> 100 µM"
  },
  {
    "COMPOUND": "Cc1cc(O)ccc1C1=NN(c2ccc(S(C)(=O)=O)cc2)C(=O)CC1",
    "SYSTEM_UNDER_TEST": "OVCAR-5 ovarian",
    "TGI": "> 100 µM"
  },
  {
    "COMPOUND": "NC1CCC(Nc2nc(NCc3ccc(-c4cccs4)nc3)c3ncn(C4CCCC4)c3n2)CC1 (stereo not drawn)",
    "SYSTEM_UNDER_TEST": "OVCAR-5 ovarian",
    "TGI": "2.58 µM"
  }
]

Q: Would you mind telling me what TGI value was observed for `Cc1nc(N/N=C/c2ccccc2Cl)[nH]c(=O)c1CCO` ?
Result: > 100 µM

Q: One more compound: CCCCCCCCCCCCCCCCOCC(Cl)COP(=O)(O)OP(=O)(O)OCC1OC(n2cc(C)c(=O)[nH]c2=O)CC1O (stereo not drawn)
Result: > 100 µM

----------
TGI for assorted molecules
Tested on: MCF7 breast
Assay: NCI tumour cell line growth inhibition, 48 h

Please review the entries below; each comes with its answer.
[
  {
    "MOLECULE": "C[n+]1c(-c2ccc(/C=N/NC(=O)C(=O)N/N=C/c3ccc(-c4cn5ccsc5[n+]4C)cc3)cc2)cn2ccsc21",
    "RESULT": "> 100 µM"
  },
  {
    "MOLECULE": "CN(C)CCN=C1Nc2ccccc2C(=S)N2CSCC12 (centres undefined)",
    "RESULT": "> 100 µM"
  },
  {
    "MOLECULE": "CCOc1ccc(N/C(Cl)=C(Cl)\\C(=C(\\Nc2ccc(OCC)cc2)n2nnc3ccccc32)[N+](=O)[O-])cc1",
    "RESULT": "24.6 µM"
  },
  {
    "MOLECULE": "Clc1ccc2c(c1)N(c1ncnc3ccc(-c4cnc5[nH]ccc5c4)cc13)CC2",
    "RESULT": "> 100 µM"
  },
  {
    "MOLECULE": "O=[N+]([O-])c1ccccc1N/N=C\\c1c[nH]c2ccccc12",
    "RESULT": "> 100 µM"
  },
  {
    "MOLECULE": "O=C(c1ccccc1)c1ccc(Oc2ccc([N+](=O)[O-])cc2[N+](=O)[O-])cc1",
    "RESULT": "19.7 µM"
  },
  {
    "MOLECULE": "C[C@]12CC/C(=N\\O)C=C1CC[C@@H]1[C@@H]2CC[C@]2(C)C(=N/O)/C(=C/c3ccc([N+](=O)[O-])cc3)C[C@@H]12",
    "RESULT": "> 100 µM"
  },
  {
    "MOLECULE": "COc1ccc2cc(C(=O)O)ccc2c1OC",
    "RESULT": "> 100 µM"
  }
]

Shifting focus to the molecule that follows.
Q: Would you mind telling me what TGI value was observed for Clc1cccc(Cl)c1C1CSc2ccccc2N=C1c1ccccc1 (centres undefined) ?
Result: 11.6 µM

----------
System: SN12C renal
Assay: NCI tumour cell line growth inhibition, 48 h; in the data active = GI50 below about 0.43 µM; inactive = the rest
Choose the fitting class; nothing outside yes for active, no for inactive is accepted.

# example entries with known answers
[
  {
    "COMPOUND": "CCCCCCCCN(CCCCCCCC)CCCCCCNc1cc(OC)cc2cccnc12",
    "QUALITATIVE_LABEL": "no"
  },
  {
    "COMPOUND": "O=[N+]([O-])c1ccc(Sc2ncnc3nc[nH]c23)c2nonc12",
    "QUALITATIVE_LABEL": "no"
  },
  {
    "COMPOUND": "COc1ccc2c(CN3CCC(C(=O)O)CC3)cc3cc4c(cc3c2c1)OCO4",
    "QUALITATIVE_LABEL": "no"
  }
]

Q: Which outcome did this test record for the compound `Nc1nc(OCc2cc(Br)cs2)c2[nH]cnc2n1` ?
Result: no

Q: One more compound: Cc1ccc(C(SCC(N)C(=O)O)(c2ccc(C)cc2)c2ccc(C)cc2)cc1 (stereo unspecified)
Result: no

Q: One more compound: `CC1(C)CCC2=C(O1)c1ccccc1C(=O)C2=O`
Result: no

Q: One more compound: COc1ccc(C(SCC(N)C(=O)O)(c2ccccc2)c2ccccc2)cc1 (stereo unspecified)
Result: yes

Q: One more compound: `Oc1ccc(O)c(-c2cn3ccsc3n2)c1`
Result: no

Q: One more compound: `CCCCCCCCCCCCC[C@H](O)C[C@H](O)[C@H](C)N`
Result: no

Q: One more compound: `Clc1ccc2c(c1)N(c1ncnc3ccc(-c4cnc5[nH]ccc5c4)cc13)CC2`
Result: no

Q: One more compound: `O=C1c2nsnc2C(=O)c2c(F)c(F)c(F)c(F)c21`
Result: no
